# Target: T1, P6mS
# T1 chain: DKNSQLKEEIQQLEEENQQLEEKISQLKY
# Method Notes: two-hybrid library CCNG1;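 note: natural log of median RNA to DNA barcode read ratio; higher means stronger binding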
Observed Property: interaction score

Consider the following illustrative entries.
>  <Binder>
DENSQLEEKISQLKQKNSQLKEEIQQLEY [P5mS]

>  <Observed Value>
-0.081

$$$$
>  <Binder>
DEIQQLEEEISQLEQKNSQLKEKNQQLKY [P3mS]

>  <Observed Value>
-0.88

$$$$
>  <Binder>
DKNSQLKEKISQLKEKIQQLKEENQQLEY [P12mS]

>  <Observed Value>
-0.944

$$$$
>  <Binder>
DKNSQLKEENSQLEEKIQQLKEKIQQLKY [P10mS]

>  <Observed Value>
-2.03

$$$$
>  <Binder>
DENQQLEQEISQLEQEISQLEQKNSQLKY [P11mS]

>  <Observed Value>
-0.739

$$$$

[1] DKNSQLKEEIQQLEEENQQLEEKISQLKY [P6mS]
[2] DKISQLKQKIQQLKQENQQLEEENSQLEY [P4mS]
Challenge: interaction score comparison. Which is larger, 1 or 2 ? Refer to your chosen entry by its label in the reply.
Response given: 1
(1: -0.275, 2: -1.48)
